These entries and their values trace back to PubChem BioAssay AID624169.

measuredTarget: 5-hydroxytryptamine receptor 2A (Mus musculus) (UniProt P35363)
Sequence (P35363 whole entry, looked up): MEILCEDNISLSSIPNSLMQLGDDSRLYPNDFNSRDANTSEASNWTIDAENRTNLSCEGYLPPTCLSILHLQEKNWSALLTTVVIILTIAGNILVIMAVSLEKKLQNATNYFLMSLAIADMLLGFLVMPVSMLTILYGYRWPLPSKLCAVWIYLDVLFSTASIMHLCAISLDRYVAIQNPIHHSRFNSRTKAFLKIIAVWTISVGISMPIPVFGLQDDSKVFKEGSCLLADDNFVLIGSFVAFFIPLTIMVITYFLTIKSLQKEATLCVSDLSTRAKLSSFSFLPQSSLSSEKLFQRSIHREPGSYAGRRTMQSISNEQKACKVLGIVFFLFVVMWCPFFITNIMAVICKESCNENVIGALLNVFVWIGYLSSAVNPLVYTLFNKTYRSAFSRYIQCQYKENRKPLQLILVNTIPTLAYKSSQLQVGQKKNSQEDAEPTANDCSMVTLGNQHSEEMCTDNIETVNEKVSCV
measurementProtocol: mouse Htr2a agonists via beta-arrestin recruitment, primary screen, cell-based, luminescence (AID 624169);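 further: 0% = plate median of compound wells and 100% = 30 µM serotonin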
runParameters: CHO-K1 mHTR2A beta-arrestin complementation, at 7.6 µM, active compounds read high, percent of 30 µM serotonin response
Screen size: about 360,000 compounds; about 2,400 (0.67%) were called active. The full list was thinned out, with actives kept by preference.
Below: a set of entries, each annotated with reported activation.

{"columns": ["compound", "activation"],
 "data": [
  ["CCCCn1c(N)c(N(CCC(C)C)C(=O)c2ccc([N+](=O)[O-])o2)c(=O)[nH]c1=O", "5.32% (inactive)"],
  ["Cc1nn(C)cc1S(=O)(=O)N1CCN(c2ccc(F)cc2)CC1", "-4.86% (inactive)"],
  ["O=C(c1cc2ccccc2o1)N1CCN(Cc2ccccc2)CC1", "-4.53% (inactive)"],
  ["CC1(Cc2cccc(C#N)c2)C(=O)Nc2ccc(-c3cccc(C(F)(F)F)c3)cc21 (configuration not stated)", "16.7% (active)"],
  ["COc1ccc(N)cc1NC(=O)CN1CCOCC1", "-3.94% (inactive)"],
  ["COC(=O)[C@]12CCCCC=C1N(Cc1ccc3c(c1)OCO3)C(=O)[C@H](CC(=O)N1CCOCC1)C2", "2.87% (inactive)"],
  ["CC(C)(C)C(=O)OCc1nc(-c2ccc(O)c(O)c2)cs1", "14.9% (active)"],
  ["CN(c1ccc(O)cc1)c1nc(-c2cccnc2)cs1", "-2.76% (inactive)"],
  ["OCC1(Cc2ccccc2)CCN(Cc2cc3ccccc3o2)CC1", "19.6% (active)"],
  ["CC1(Cc2ccccc2C#N)C(=O)Nc2ccc(-c3ccc4[nH]ccc4c3)cc21 (configuration not stated)", "-1.29% (inactive)"],
  ["Cc1cccc(N2CC(C)Cn3c2nc2c3c(=O)n(CC(=O)OCc3ccccc3)c(=O)n2C)c1 (configuration not stated)", "0.76% (inactive)"],
  ["CCC/C=C(\\CCC)C(NC(=O)Cc1ccccc1)c1ccc(C(=O)OC)cc1 (configuration not stated)", "-7.9% (inactive)"],
  ["C[C@@H]1CN([C@@H](C)CO)C(=O)c2cc(Br)cnc2O[C@H]1CN(C)Cc1ccc(-c2ccccc2)cc1", "-1.74% (inactive)"],
  ["CCOc1ccccc1NS(=O)(=O)c1cc2c3c(c1)C(C)C(=O)N3CCC2 (configuration not stated)", "5.3% (inactive)"],
  ["C=C1c2c(Cl)ccc(O)c2C(O)=C2C(=O)[C@]3(O)C(O)=C(C(N)=O)C(=O)[C@@H](N(C)C)[C@@H]3[C@@H](O)C12 (some centres not stated)", "-1.23% (inactive)"],
  ["C=CCNC(=O)C12CC3CC(C1)CC(C(=O)NCC=C)(C3)C2", "-0.48% (inactive)"],
  ["Cc1ccc(C(=O)N/C(=C/c2cccs2)C(=O)NCC2CCCO2)cc1 (configuration not stated)", "6.31% (inactive)"]
]}

* * *

measuredTarget: 5-hydroxytryptamine receptor 2A (Mus musculus)
measurementProtocol: mouse Htr2a agonists via beta-arrestin recruitment, primary screen, cell-based, luminescence (AID 624169);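 further: 0% = plate median of compound wells and 100% = 30 µM serotonin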
runParameters: CHO-K1 mHTR2A beta-arrestin complementation, at 7.6 µM, active compounds read high, percent of 30 µM serotonin response
The whole screen tested about 360,000 compounds, of which about 2,400 (0.67%) were called active. Only a selection was taken, and actives are over-represented in it overall.
The following molecules are shown together with reported activation values.
quantityKind: activation (%)

{"columns": ["molecule", "unitSpec", "number"],
 "data": [
  ["CCOc1cc(C(=O)OCC(=O)Nc2cccc(C)c2)ccc1OCC(=O)N1CCOCC1", "%", -2.12],
  ["Cc1[nH]c2ccccc2c1CCN(Cc1cccs1)C(=S)NC(C)(C)C", "%", 24.1],
  ["COc1ccc(NC(=O)CC2COc3ccccc3O2)c(OC)c1 (stereo not drawn)", "%", 2.64],
  ["Cc1cccnc1C(NC(=O)C1CCN(Cc2ccc(Cl)c(Cl)c2)CC1)c1ccc(Cl)cc1 (stereo not drawn)", "%", 16.4],
  ["CCn1cc(C(=O)N2CC=C(c3ccccc3)CC2)c(=O)c2ccc(C)nc21", "%", -3.76],
  ["Cc1nnc(C)c2c(C)n(N)c(C)c12", "%", -1.02],
  ["Cc1ccc(NC(=O)CN(C)Cc2ccc(F)cc2)c([N+](=O)[O-])c1", "%", 1.68],
  ["CSc1nsc(SCC(=O)Nc2cc(C(=O)O)ccc2C)n1", "%", 15.6],
  ["COc1ccc2[nH]c(C)c(CCN(Cc3cccs3)C(=S)Nc3ccccc3OC)c2c1", "%", 10.5],
  ["COC(=O)[C@@]1(Cc2ccc(F)cc2)[C@H]2c3cc(C(=O)N4CCCC4)n(Cc4ccc(OC(F)(F)F)cc4)c3C[C@H]2CN1C(=O)c1ccccc1", "%", 1.1],
  ["Cc1ccccc1NC(=O)C1CCN(C(=O)NC2CCCCC2)CC1", "%", -2.36],
  ["CCNC(=S)N(CCc1c(C)[nH]c2ccc(C)cc12)Cc1ccco1", "%", -4.57],
  ["CCOC(=O)Cc1cc(=O)[nH]c(=O)[nH]1", "%", -0.86],
  ["O=C(OCc1nnc(-c2ccccc2)o1)c1ccc2c(c1)C(=O)N(CCc1ccccc1)C2=O", "%", 1.62],
  ["CCc1ccc(OCC(=O)N(Cc2ccccc2)C2CCS(=O)(=O)C2)cc1 (stereo not drawn)", "%", -6.02],
  ["Cc1nc2ccccc2nc1CC(O)(c1ccccc1)c1ccccc1", "%", 1.95],
  ["COCc1cc(C(C)=O)ccc1OC", "%", 2.94],
  ["COc1ccc(N(C(=O)CNC(=O)c2ccco2)C(C(=O)NCC2CCCO2)c2ccccc2)cc1Cl (stereo not drawn)", "%", -3.88],
  ["O=C(CSc1nncs1)NC1CCCc2ccccc21 (stereo not drawn)", "%", -0.06],
  ["O=C(OCC(=O)N1CCOCC1)c1ccc2ccccc2c1", "%", 14.5],
  ["Cc1ccc(C)c(S(=O)(=O)N2CCN(c3ncnc4sccc34)CC2)c1", "%", 4.9],
  ["O=C(OCC(=O)N1CCOCC1)c1ccc(N2CCOCC2)c([N+](=O)[O-])c1", "%", -5.4],
  ["COc1ccc(C(C)=O)cc1COC(=O)Cn1cnc2ccccc2c1=O", "%", 16.5]
]}

* * *

measuredTarget: 5-hydroxytryptamine receptor 2A (Mus musculus)
measurementProtocol: mouse Htr2a agonists via beta-arrestin recruitment, primary screen, cell-based, luminescence (AID 624169);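 further: 0% = plate median of compound wells and 100% = 30 µM serotonin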
runParameters: CHO-K1 mHTR2A beta-arrestin complementation, at 7.6 µM, active compounds read high, percent of 30 µM serotonin response
About 2,400 (0.67%) of roughly 360,000 compounds were called active. The full list was thinned out, with actives kept by preference.

{"columns": ["compound", "activation (%)"],
 "data": [
  ["C=CCn1c(=NC(=O)c2cccs2)sc2cc(NC(C)=O)ccc21", 23.5],
  ["O=S1(=O)CC(N2CCN(Cc3ccccc3F)CC2)CN1Cc1cn(Cc2ccccc2)nn1 (configuration not stated)", 0.73],
  ["C=CCn1c(=NC(=O)c2ccc(S(=O)(=O)N3CCCC3)cc2)sc2cc(NC(C)=O)ccc21", 1.21],
  ["COC(=O)c1ccc2nc(-c3cccc(Br)c3)c(Cc3ccc(OC)cc3C)n2c1", -0.25],
  ["CCC(C)c1ccc(O)c(/C=N/O)c1 (configuration not stated)", -3.25],
  ["CC1CC(=S)Nc2ccccc2N1Cc1ccccc1 (configuration not stated)", -4.32],
  ["Cc1cc(C(=O)OC(C)C(=O)NC2CCCCC2C)c(C)o1 (configuration not stated)", 5.88],
  ["CCOC(=O)c1cccc(NC(=O)CN(c2ccc(C)cc2)S(=O)(=O)c2c(C)noc2C)c1", 4.56],
  ["O=C(NCc1ccccc1Cl)C1CCN(S(=O)(=O)N2CCOCC2)CC1", 2.15],
  ["Cc1ccc(S(=O)(=O)N2CCN(Cc3cccc(C)c3O)CC2)cc1", -3.27],
  ["C=CCn1c(CCNC(=O)c2cccs2)n[nH]c1=S", 4],
  ["Cc1noc(C)c1S(=O)(=O)N(CC(=O)Nc1ccc2c(c1)OCCO2)c1ccc(C(C)C)cc1", 18.8]
]}
